biological target: Hexose transporter 1 (Plasmodium falciparum); assay: ST_JUDE_LEISH: Cytotoxicity at 2uM final concentration against transgenic Leishmania Mexicana promastigotes LmPfHT that are glucose transport deficient and complemented with the Plasmodium falciparum hexose transporter. Activity is measured by DNA content using SYBR green in vitro; format: functional
measured endpoint: inhibition

Example results:
O=C(Nc1ccc(S(=O)(=O)NCCCN2CCOCC2)cc1)c1cc(-c2ccccc2)[nH]n1 ... 1.66%
Cc1cc(NC(c2ccc(Cl)cc2)c2ccc3cccnc3c2O)no1 (stereo unspecified) ... 22.8%
COCC(=O)N(Cc1ccccc1-c1cccc(CNCc2ccc3c(c2)OCO3)c1)C1CCN(Cc2ccccc2)CC1 ... 1.22%

Batch lookup, inhibition per entry.
1. CC(=O)Oc1cc(C)ccc1C1CCN(CCCCNC(=O)c2ccc(-c3ccc(C(F)(F)F)cc3)cc2)CC1
2. CN1CCN(CCc2ccc3nc(-c4csc(Cc5cc(Cl)ccc5OCc5ccccc5)n4)[nH]c3c2)CC1
3. CCCOc1cccc(C(=O)N[C@@H](Cc2ccccc2)[C@H](O)CNCc2ccccc2OC)c1
4. Oc1ccc(CCNCCCCCCNCCc2ccc(Cl)c3ccccc23)cc1O
5. CCc1ccc(NC(=O)c2ccc(CN3CCCN(Cc4cccc(C)c4)CC3)cc2)cc1
6. N#Cc1cccc(C(O)CN(Cc2ccccc2)Cc2ccccc2)c1 (stereo unspecified)

Response given:
1. 2.04%
2. 2.08%
3. 2.98%
4. -2.07%
5. 9.33%
6. 1.53%

Give inhibition for all compounds that follow.
1. NS(=O)(=O)c1ccc(CNc2ccc3ncc(-c4ccc(OC(F)(F)F)cc4)n3n2)cc1
2. CN=C(NC)c1cccc(NC(=O)C=Cc2ccc(C=CC(=O)Nc3cccc(C(=NC)NC)c3)cc2)c1
3. O=C(C=Cc1ccc(Cl)c(Cl)c1)NCCCCCN1CCC(CCNC(=O)c2ccc3c(c2)OCO3)CC1
4. Cc1cnn(-c2cccc(C(=O)NC3CCC(CCN4CCc5ccc(C#N)cc5CC4)CC3)c2)c1 (stereo unspecified)
5. COc1ccc(C(=O)CCC(=O)N(Cc2ccc(-c3ccc(CNCCc4ccc(S(C)(=O)=O)cc4)cn3)cc2)Cc2ccc3c(c2)OCO3)cc1F
6. N/C(=N\c1cccc(Cc2ccccc2)n1)NCc1ccccc1
7. COc1ccc(Cc2c(C)nc3nc(N)nc(N)c3c2C)cc1

Response given:
1. 4.62%
2. 2.48%
3. 5.12%
4. 6.24%
5. -0.05%
6. -1.19%
7. 38.2%

List reported inhibition for each of these compounds:
1. N#Cc1ccc(-c2ccc(C(=O)NCCCCN3CCC(c4ccc5c(c4OCC(N)=O)CCCC5)CC3)nc2)cc1
2. COc1ccc(-c2nc(NC(=O)CSc3ccc([N+](=O)[O-])cc3)sc2C)cc1
3. COc1ccccc1NS(=O)(=O)c1cc(C(=O)Nc2ccc(N3CCOCC3)c(S(=O)(=O)Nc3ccccc3Cl)c2)ccc1Cl
4. CCCc1nc2c(N3CCCN(C(=O)NC4CCCCC4)CC3)cccc2n1Cc1ccccn1
5. CCCN(CCC)CCOc1ccc(C(O)(C#CC(O)(c2ccc(OCCN(CCC)CCC)cc2)c2cccc(Cl)c2)c2cccc(Cl)c2)cc1 (stereo unspecified)
6. CC(C)Nc1cc(C(=O)N[C@@H](Cc2ccccc2)[C@H](O)CNCc2cccc(C(F)(F)F)c2)c(F)c(N2CCCCS2(=O)=O)c1
7. Cc1[nH]c(C)c(-c2ccc(CCc3cccc(C(F)(F)F)c3)nc2)c(=O)c1Cl

Response given:
1: 0.86%; 2: -0.37%; 3: 2.83%; 4: -1.61%; 5: 4.78%; 6: 6.09%; 7: 2.18%

I would be grateful if you could provide inhibition for each of the following entries.
1. N#Cc1ccc(C(=O)Nc2ccc(Cl)c(N3CCN(CCc4ccccc4)CC3)c2)cc1
2. CN(CCN(C)C(=O)NCc1ccccc1)C(=O)NCc1ccccc1
3. O=c1cc(NCCC2CC=CCN2Cc2ccc(Cl)c(Cl)c2)[nH]c2ccccc12 (stereo unspecified)

Response given:
1: 7.95%; 2: 3.69%; 3: 0.33%
